System: Staphylococcus aureus MW2 (mecA+)
Experiment: IC50 (growth, competition assay)
Conditions: fluorescent label: DsRed; cefoxitin: subinhibitory
Counter-ions that a name gives are not always drawn.
propertyMeasured: IC50 (µM)
// note: answer is a bare numeric in µM

Endpoint output: IC50 of CN1CCN(C2Cc3ccccc3Sc3ccc(Cl)cc32)CC1 (configuration not stated) [(?)-Octoclothepin maleate] . Value?
73.8

So what does the record say about IC50 for O=C(c1ccc(Nc2nccc(-c3cc4ccccc4s3)n2)cc1)N1CCC(N2CCCC2)CC1 [IKK-16] ?
49.4

IC50 for COC(=O)/C(C)=C\C[C@@]12OC(C)(C)[C@@H]3C[C@@H](C=C4C(=O)c5c(O)c6c(c(CC=C(C)C)c5O[C@]431)O[C@](C)(CCC=C(C)C)C=C6)C2=O [METHYL GAMBOGATE] ?
56.8

What value of IC50 has been recorded for this entry: CN1CCN(CCCN2c3ccccc3Sc3ccc(C(F)(F)F)cc32)CC1 [Trifluoperazine dihydrochloride]
51.1

Which IC50 value belongs to O=C(/C=C/c1ccc(O)c(O)c1)c1ccc(O)cc1O [Butein] ?
92.3

# credit: the supplement of paper PMC7695840
